Form field: logP (one value per entry).
measurement-protocol: Octanol-water partition coefficient, log P of the compound at 1 mg by RP-HPLC analysis
Format: physicochemical

{"columns": ["molecule", "logP"],
 "data": [
  ["CC(=O)N(O)CCCCCNC(=O)CCC(=O)N(O)CCCCCNC(=O)CCC(=O)N(O)CCCCCNC(=O)C12CC3CC(C)(CC(C)(C3)C1)C2", 2.07],
  ["CC(=O)N(O)CCCCCNC(=O)CCC(=O)N(O)CCCCCNC(=O)CCC(=O)N(O)CCCCCNC(=O)CC12CC3CC(CC(O)(C3)C1)C2", 0.15],
  ["CC(=O)N(O)CCCCCNC(=O)CCC(=O)N(O)CCCCCNC(=O)CCC(=O)N(O)CCCCCNC(=O)C12CC3(C)CC(C)(CC(C)(C3)C1)C2", 2.54],
  ["CC(=O)N(O)CCCCCNC(=O)CCC(=O)N(O)CCCCCNC(=O)CCC(=O)N(O)CCCCCNC(=O)CC12CC3CC(C)(CC(C)(C3)C1)C2", 2.17],
  ["CC(=O)N(O)CCCCCNC(=O)CCC(=O)N(O)CCCCCNC(=O)CCC(=O)N(O)CCCCCNC(=O)[C@H]1C[C@H]2CC[C@H]1C2 (relative stereo)", 0.55],
  ["CC(=O)N(O)CCCCCNC(=O)CCC(=O)N(O)CCCCCNC(=O)CCC(=O)N(O)CCCCCNC(=O)C12CC3CC(CC1C3)C2", 0.98],
  ["CC(=O)N(O)CCCCCNC(=O)CCC(=O)N(O)CCCCCNC(=O)CCC(=O)N(O)CCCCCNC(=O)C12CC3CC(C1)CC(c1ccc([N+](=O)[O-])cc1)(C3)C2", 2.09],
  ["CC(=O)N(O)CCCCCNC(=O)CCC(=O)N(O)CCCCCNC(=O)CCC(=O)N(O)CCCCCNC(=O)CC12CC3CC(CC(Br)(C3)C1)C2", 1.84],
  ["CC(=O)N(O)CCCCCNC(=O)CCC(=O)N(O)CCCCCNC(=O)CCC(=O)N(O)CCCCCNC(=O)C12CC3CC(CC(Cl)(C3)C1)C2", 1.84],
  ["CCCCC[C@]12CC[C@@H](CC1)[C@@H](C(=O)NCCCCCN(O)C(=O)CCC(=O)NCCCCCN(O)C(=O)CCC(=O)NCCCCCN(O)C(C)=O)C2 (relative stereo)", 2.82],
  ["CC(=O)N(O)CCCCCNC(=O)CCC(=O)N(O)CCCCCNC(=O)CCC(=O)N(O)CCCCCNC(=O)C1CCCCC1", 0.96]
]}
